Entries and their growth
Test system: UO-31 renal
Assay: NCI-60 one-dose screen, 48 h (100 = growth as untreated, 0 = no growth, -100 = all killed)
Details: 10 µM unless noted
About 83,000 compounds went through this panel and 20% of them were active in at least one assay; those are over-represented in the sample as a whole. Active and inactive are the calls of the source. How the source made its calls: active means growth percent below 10; inactive means the rest.

- Compound: "Cc1cc(NCc2cc(Nc3ccnc4cc(Cl)ccc34)ccc2F)nc(N2CCSCC2)n1"
  growth: "-10.2% (active)"
- Compound: "COC(=O)c1ccc(C2Nc3ccc(S(=O)(=O)Nc4ccc(C)c(C)c4)cc3C3OCCC23)cc1 (stereo not given)"
  growth: "74.9% (inactive)"
- Compound: "Cc1nn(-c2ccccc2)c2nc3c(c(-c4ccc(Cl)cc4)c12)CNC1(CCSCC1)N3"
  growth: "94.9% (inactive)"
- Compound: "Cc1ccc(S(=O)(=O)n2cc(CNc3ccc(N4CCOCC4=O)cc3)c3ccccc32)cc1"
  growth: "43.3% (inactive)"
- Compound: "O=C(Cc1ccc(F)c(F)c1)Nc1cc(C2(C(F)(F)F)CC2)nn1Cc1ccccc1"
  growth: "-3.87% (active)"
